For each record, write down the corresponding % of Max VEGF KDR pTyr Activity (at 133 nM antibody concentration), N = 1.
Target: KDR (human, UniProt P35968 20-1356)
Sequence (P35968 20-1356): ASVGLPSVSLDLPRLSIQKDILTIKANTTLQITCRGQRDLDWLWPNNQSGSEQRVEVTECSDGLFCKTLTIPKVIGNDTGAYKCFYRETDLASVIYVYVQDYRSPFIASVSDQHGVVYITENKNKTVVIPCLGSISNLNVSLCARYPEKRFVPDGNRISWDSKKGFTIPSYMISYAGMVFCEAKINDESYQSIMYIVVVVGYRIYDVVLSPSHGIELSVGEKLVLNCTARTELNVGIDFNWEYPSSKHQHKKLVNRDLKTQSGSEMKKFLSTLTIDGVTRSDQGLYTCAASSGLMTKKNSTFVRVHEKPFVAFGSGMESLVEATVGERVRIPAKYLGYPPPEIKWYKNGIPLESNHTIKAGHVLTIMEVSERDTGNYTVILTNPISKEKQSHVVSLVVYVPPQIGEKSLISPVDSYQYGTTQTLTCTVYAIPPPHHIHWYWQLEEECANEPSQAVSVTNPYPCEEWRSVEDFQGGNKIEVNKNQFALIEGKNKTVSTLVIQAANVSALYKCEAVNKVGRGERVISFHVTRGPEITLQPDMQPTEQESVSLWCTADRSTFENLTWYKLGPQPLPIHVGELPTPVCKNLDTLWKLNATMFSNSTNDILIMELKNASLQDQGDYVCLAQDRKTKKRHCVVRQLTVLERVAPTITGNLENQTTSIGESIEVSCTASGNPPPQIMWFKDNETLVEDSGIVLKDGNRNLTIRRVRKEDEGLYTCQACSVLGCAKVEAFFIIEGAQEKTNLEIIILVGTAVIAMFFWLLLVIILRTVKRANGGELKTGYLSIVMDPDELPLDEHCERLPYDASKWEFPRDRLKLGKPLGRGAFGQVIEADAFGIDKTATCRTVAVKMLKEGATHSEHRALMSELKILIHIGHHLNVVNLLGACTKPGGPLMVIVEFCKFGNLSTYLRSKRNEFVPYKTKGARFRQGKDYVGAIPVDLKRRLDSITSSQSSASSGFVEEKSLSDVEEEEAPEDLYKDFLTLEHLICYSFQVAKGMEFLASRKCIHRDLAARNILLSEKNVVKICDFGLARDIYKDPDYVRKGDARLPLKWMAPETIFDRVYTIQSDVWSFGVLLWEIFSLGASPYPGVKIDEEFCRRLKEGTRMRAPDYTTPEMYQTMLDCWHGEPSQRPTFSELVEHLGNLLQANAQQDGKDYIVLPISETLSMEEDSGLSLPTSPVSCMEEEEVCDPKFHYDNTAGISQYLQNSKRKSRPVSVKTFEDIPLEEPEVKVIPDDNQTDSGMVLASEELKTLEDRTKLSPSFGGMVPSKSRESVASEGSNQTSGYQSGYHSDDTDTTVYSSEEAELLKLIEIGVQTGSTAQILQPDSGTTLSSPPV
Assay: cell-based or functional assay
Numbers only, in %.

27A3 (antibody, V domains shown) VH: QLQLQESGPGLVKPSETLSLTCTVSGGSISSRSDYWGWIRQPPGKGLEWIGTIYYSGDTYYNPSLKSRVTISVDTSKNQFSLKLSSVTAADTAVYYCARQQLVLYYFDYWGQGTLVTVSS VL: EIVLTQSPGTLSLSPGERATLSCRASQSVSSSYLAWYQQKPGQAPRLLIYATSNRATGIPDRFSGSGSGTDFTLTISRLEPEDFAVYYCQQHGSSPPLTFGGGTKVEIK ... 22

Please supply % of Max VEGF KDR pTyr Activity (at 133 nM antibody concentration), N = 1 for each of the following items, keeping them in order.
1. 22B8 (antibody, V domains shown) VH: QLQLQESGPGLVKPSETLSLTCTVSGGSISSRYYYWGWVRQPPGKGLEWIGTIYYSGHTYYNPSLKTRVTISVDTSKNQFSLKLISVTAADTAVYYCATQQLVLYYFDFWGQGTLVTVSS VL: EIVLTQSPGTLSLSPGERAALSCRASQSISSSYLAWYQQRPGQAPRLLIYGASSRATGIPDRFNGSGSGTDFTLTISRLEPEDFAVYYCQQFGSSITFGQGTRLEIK
2. 21H6 (antibody, V domains shown) VH: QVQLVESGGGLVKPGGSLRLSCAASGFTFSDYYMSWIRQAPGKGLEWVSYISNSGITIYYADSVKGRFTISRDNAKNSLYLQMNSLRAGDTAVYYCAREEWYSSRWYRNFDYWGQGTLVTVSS VL: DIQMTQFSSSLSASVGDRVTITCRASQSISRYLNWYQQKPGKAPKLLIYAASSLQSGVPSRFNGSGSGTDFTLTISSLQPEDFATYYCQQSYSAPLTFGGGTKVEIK

9
10
